These entries and their values trace back to patent US20260365653A1.

System: BA/F3 (insSVD) cells
measurement notes: Ba/F3-EGFR-insSVD cell survival assay (Cell Titer-Glo)
Format: cell-based
test context: Mus musculus, BaF3, 48 h, Table 3a, cell survival, Cell Titer-Glo, with 10 ng/ml EGF, without IL-3
Returns: string. Value is TRUE if measured IC50 is below 0.3 µM, and FALSE if it is greater than or equal to it.

compound=CN1CC=C(C(=O)N2CCn3nc(-c4ccc(Cl)cc4F)c(-c4ccncc4)c3C2)C1 group=FALSE
compound=Cc1ccc(-c2nn3c(c2-c2ccncc2)CN(C(=O)/C=C/CN(C)C)CC3)cc1 group=TRUE
compound=COc1cccc(-c2nn3c(c2-c2ccncc2)CN(C(=O)/C=C/CN(C)C)CC3)c1 group=FALSE
compound=O=C(/C=C/CF)N1CCn2nc(-c3ccc(Cl)cc3F)c(-c3ccncc3)c2C1 group=TRUE
compound=C=CC(=O)N1CCn2nc(-c3ccc4cc(F)sc4c3)c(-c3ccnc4[nH]cc(C)c34)c2C1 group=TRUE
compound=NCC#CC(=O)N1CCn2nc(-c3ccc(F)cc3)c(-c3ccncc3)c2C1 group=FALSE
compound="CN(C)C/C=C/C(=O)N1Cc2c(-c3ccncc3)c(-c3ccc(F)cc3)nn2C(C(N)=O)C1 (racemic)" group=FALSE
compound=C=CC(=O)N1CCn2nc(Nc3ccccc3)c(-c3ccncc3)c2C1 group=TRUE
compound="C=CC(=O)N1CCn2nc(-c3ccc(Cl)cc3F)c(-c3ccncc3)c2C1C (racemic)" group=TRUE
compound=Cc1c[nH]c2nccc(-c3c(-c4ccc(C(F)(F)F)cc4)nn4c3CN(C(=O)/C=C/CN(C)C)[C@H](C)C4)c12 group=TRUE
compound=C=CC(=O)N1CCn2nc(-c3ccc(OC(F)(F)F)cc3)c(-c3ccncc3)c2C1 group=TRUE
compound=Cc1ccc(-c2nn3c(c2-c2ccnc4[nH]ccc24)CN(C(=O)/C=C/CN(C)C)CC3)c(F)c1 group=FALSE
compound=C=CC(=O)N1CCn2nc(-c3ccc(Cl)cc3F)c(-c3ccncc3)c2C1 group=TRUE
compound=C=CC(=O)N1CCn2nc(-c3ccc4[nH]ccc4c3)c(-c3ccncc3)c2C1 group=TRUE
compound=C=CC(=O)N1CCn2nc(-c3cccc4ccoc34)c(-c3ccncc3)c2C1 group=TRUE
compound=CN(C)C/C=C/C(=O)N1CCn2nc(-c3ccc(C#N)cc3)c(-c3ccncc3)c2C1 group=FALSE

---

target or test system: mutEGFR (D770_N771insNPG, T790) (Homo sapiens, UniProt P00533, INS770NPG/T790M)
Construct: exact insNPG construct not described; in-house EGFR proteins were N-terminal GST fusions from baculovirus/insect cells (borders R669-A1210 given only for WT, insSVD, insASV)
Sequence (P00533 with tags, fused parts or gaps INS770NPG/T790M limits assumed): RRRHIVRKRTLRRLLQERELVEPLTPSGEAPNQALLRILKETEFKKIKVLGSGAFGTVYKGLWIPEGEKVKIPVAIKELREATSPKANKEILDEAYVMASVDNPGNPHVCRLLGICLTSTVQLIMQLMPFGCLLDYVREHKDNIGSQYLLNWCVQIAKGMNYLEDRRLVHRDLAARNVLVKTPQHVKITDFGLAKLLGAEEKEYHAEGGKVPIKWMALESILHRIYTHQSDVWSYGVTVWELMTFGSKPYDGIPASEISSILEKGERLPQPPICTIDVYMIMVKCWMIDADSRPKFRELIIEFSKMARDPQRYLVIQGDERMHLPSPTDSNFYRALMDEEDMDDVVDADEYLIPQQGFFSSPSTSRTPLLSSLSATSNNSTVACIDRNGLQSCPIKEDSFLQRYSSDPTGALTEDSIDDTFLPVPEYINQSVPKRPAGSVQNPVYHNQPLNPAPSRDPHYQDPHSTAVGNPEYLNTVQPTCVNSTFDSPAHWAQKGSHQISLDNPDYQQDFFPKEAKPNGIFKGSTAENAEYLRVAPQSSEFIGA
measurement notes: mutEGFR (D770_N771insNPG, T790) kinase assay
Assay type: biochemical
test context: Table 2a, D770_N771insNPG
IC50: recorded values
endpoint name: IC50

compound="C=CC(=O)N1CCn2nc(-c3ccc(Cl)cc3F)c(-c3ccncc3C)c2C1 [Example 50]" target_or_test_system="mutEGFR (D770_N771insNPG, T790) (Homo sapiens, UniProt P00533, INS770NPG/T790M)" result="135 nM"
compound="C=CC(=O)N1Cc2c(-c3ccnc4[nH]cc(C)c34)c(-c3ccc(C(F)(F)F)cc3)nn2C[C@H]1C [Example 260]" target_or_test_system="mutEGFR (D770_N771insNPG, T790) (Homo sapiens, UniProt P00533, INS770NPG/T790M)" result="1280 nM"
compound="O=C(Nc1cc(-c2c(-c3ccc(F)cc3)nn3c2CN(C(=O)C2CO2)CC3)ccn1)C1CC1 (centres unmarked) [Example 9]" target_or_test_system="mutEGFR (D770_N771insNPG, T790) (Homo sapiens, UniProt P00533, INS770NPG/T790M)" result="104 nM"
compound="CC#CC(=O)N1CCn2nc(-c3ccc(F)cc3)c(-c3ccncc3)c2C1 [Example 16]" target_or_test_system="mutEGFR (D770_N771insNPG, T790) (Homo sapiens, UniProt P00533, INS770NPG/T790M)" result="76.6 nM"
compound="CC(C)(C)OC(=O)NC1(C#CC(=O)N2CCn3nc(-c4ccc(F)cc4)c(-c4ccncc4)c3C2)CC1 [Example 86]" target_or_test_system="mutEGFR (D770_N771insNPG, T790) (Homo sapiens, UniProt P00533, INS770NPG/T790M)" result="237 nM"
compound="C=CC(=O)N1CCn2nc(-c3ccc(C)cc3)c(-c3ccncc3)c2C1 [Example 138]" target_or_test_system="mutEGFR (D770_N771insNPG, T790) (Homo sapiens, UniProt P00533, INS770NPG/T790M)" result="2.93 nM"
compound="CN(C)C/C=C/C(=O)N1CCn2nc(-c3ccc(C#N)cc3)c(-c3ccncc3)c2C1 [Example 33]" target_or_test_system="mutEGFR (D770_N771insNPG, T790) (Homo sapiens, UniProt P00533, INS770NPG/T790M)" result="67 nM"
compound="C=CC(=O)N1Cc2c(-c3ccncc3)c(-c3ccc4cc(Cl)sc4c3)nn2CC1C (racemic) [Example 233]" target_or_test_system="mutEGFR (D770_N771insNPG, T790) (Homo sapiens, UniProt P00533, INS770NPG/T790M)" result="0.467 nM"
